Items are presented alongside their recorded inhibition at 10 µM.
# target.or.system: human B1R (bradykinin receptor 1) (Homo sapiens, UniProt P46663)
# Construct: expressed in transfected cells; host or cells: CHO K1 cells
# Sequence (P46663 1-353): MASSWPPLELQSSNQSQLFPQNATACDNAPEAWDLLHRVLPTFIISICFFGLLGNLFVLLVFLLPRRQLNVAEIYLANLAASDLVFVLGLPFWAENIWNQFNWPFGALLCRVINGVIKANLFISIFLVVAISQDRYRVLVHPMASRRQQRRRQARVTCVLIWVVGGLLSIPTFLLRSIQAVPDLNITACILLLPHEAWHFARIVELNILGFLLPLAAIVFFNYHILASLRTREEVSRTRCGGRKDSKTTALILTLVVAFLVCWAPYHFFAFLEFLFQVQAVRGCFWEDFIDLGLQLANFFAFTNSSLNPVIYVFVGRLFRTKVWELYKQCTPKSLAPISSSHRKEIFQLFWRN
# measurement.description: FLIPR Ca2+ assay (Fluo-4) on CHO K1 cells stably transfected with the human B1R gene (hB1R cells): % inhibition at 10 μM / IC50, agonist Lys-Des-Arg9-bradykinin
# Assay type: cell-based
# experimental.parameters: CHO-K1, human B1R
# value in %; strip the unit string

> print(dat)
                                   compound   parameter.measured  measured
1  O=C(N[C@@H]1CCc2ccc(C(=O)N3CCC4(CCN(c5ccncc5)CC4)C3)cc21)c1ccccc1F [Example H-101]  inhibition at 10 µM        97
2  O=C(N[C@@H]1CCCc2ccc(C(=O)N3CCC4(CC3)CCN(c3ccncc3)CC4)cc21)c1ccccc1Cl [Example H-09]  inhibition at 10 µM       100
3  CC(C)(C)CC(=O)N1CCC2(CC1)CCN(C(=O)c1ccc3c(c1)C(NC(=O)c1ccccc1Cl)CC3)C2 (stereo not shown) [IND_CC-574]  inhibition at 10 µM        14
4  CC1(C)CC(NC(=O)/C=C/c2ccccc2Cl)c2cc(C(=O)N3CCC4(CC3)CCN(c3ccncc3)CC4)ccc21 (stereo not shown) [Ind_CC-060]  inhibition at 10 µM        93
5  O=C(N[C@@H]1CCc2c(C(=O)N3CCC4(CCN(c5ccncc5)CC4)C3)cccc21)c1ccccc1Cl [Example H-162]  inhibition at 10 µM        13
6  CN(C(=O)c1ccc(Cl)cc1Cl)C1CCc2ccc(C(=O)N3CCC4(CC3)CCN(c3ccncc3)CC4)cc21 (stereo not shown) [Ind_CC-018]  inhibition at 10 µM        98
7  O=C(N[C@H]1CCc2ccc(C(=O)N3CCC4(CCN(c5ccncc5)CC4)C3)cc21)c1ccccc1Cl [Example H-20]  inhibition at 10 µM       100
8  O=C(NC1CCc2ccc(C(=O)N3CCC4(CCN(c5ccncc5)CC4)C3)cc21)C(c1ccccc1)c1ccccc1Cl (stereo not shown) [Ind_CC-082]  inhibition at 10 µM       100

Recorded inhibition at 10 µM for COc1ccc(S(=O)(=O)N[C@@H]2CCc3ccc(C(=O)N4CCC5(CCN(c6ccncc6)CC5)C4)cc32)c(C)c1 [Example H-147] with human B1R (bradykinin receptor 1) (Homo sapiens, UniProt P46663), please?
100

Checklist item: inhibition at 10 µM tested on human B1R (bradykinin receptor 1) (Homo sapiens, UniProt P46663), entry O=C(c1ccc2c(c1)C(NS(=O)(=O)CCc1ccccc1Cl)CC2)N1CCC2(CC1)CCN(c1ccncc1)CC2 (stereo not shown) [IND_CC-241] , value?
95

State its inhibition at 10 µM on human B1R (bradykinin receptor 1) (Homo sapiens, UniProt P46663): O=C(NC1CCc2ccc(C(=O)N3CCC4(CC3)CCN(c3ccncc3)CC4)cc21)c1ccc(F)cc1Cl (stereo not shown) [IND_CC-262]
100

Param readout = inhibition at 10 µM; param system = human B1R (bradykinin receptor 1) (Homo sapiens, UniProt P46663); param query = CC1(C)Cc2ccc(C(=O)N3CCC4(CC3)CCN(c3ccncc3)CC4)cc2C1NC(=O)c1ccc(Cl)cc1Cl (stereo not shown) [Ind_CC-067] ; response: value
94

Lookup: inhibition at 10 µM / human B1R (bradykinin receptor 1) (Homo sapiens, UniProt P46663) / O=C(c1ccc2c(c1)[C@H](N1Cc3cccc(Cl)c3C1=O)CC2)N1CCC2(CCN(c3ccncc3)CC2)C1 [Example H-96]
100

Form: Entry = O=C(c1ccc2c(c1)C(N(C(=O)c1ccccc1Cl)C1CC1)CC2)N1CCC2(CCN(c3ccncc3)CC2)C1 (stereo not shown) [Ind_CC-118] | System = human B1R (bradykinin receptor 1) (Homo sapiens, UniProt P46663) | inhibition at 10 µM = ____
100

Which inhibition at 10 µM is reported with human B1R (bradykinin receptor 1) (Homo sapiens, UniProt P46663) for this entry: O=C(NC1CCc2ccc(C(=O)N3CCC4(CC3)CCN(c3ccncc3)C4)cc21)c1cccc(Cl)c1Cl (stereo not shown) [IND_CC-267] ?
86

Observed inhibition at 10 µM on human B1R (bradykinin receptor 1) (Homo sapiens, UniProt P46663) for Cc1cc2c(cc1C(=O)N1CCC3(CCN(c4ccncc4)CC3)C1)[C@H](NC(=O)c1ccccc1Cl)CC2 [Example H-93] , please.
100
